These measurements were taken from paper PMC5620575.

PROTOCOL_DESCRIPTION: pharmacokinetics after single oral administration as microemulsion
Format: in vivo
APPLIED_CONDITIONS: New Zealand White, plasma, rabbit, 20 mg/kg, n = 3
RECORDED_ENDPOINT: Tmax (min)
Dear colleague, please return just the value in min, with no unit written.

{"columns": ["COMPOUND", "Tmax [min]"],
 "data": [
  ["CC(=O)NC[C@H]1CN(c2ccc(N3CCOCC3)c(F)c2)C(=O)O1 [Linezolid, reference compound]", 45],
  ["O=C1O[C@@H](Cn2ccnn2)CN1c1ccc(N2CCN(C(=O)C(F)(F)F)CC2)c(F)c1", 30]
]}

Could you now look at the following compound, please?
Data request: Can you look up the measured Tmax of O=C1O[C@@H](Cn2ccnn2)CN1c1ccc(N2CCOCC2)c(F)c1 for me?
Data returned: 120
